Test system: T-47D breast
Test Method Notes: NCI tumour cell line growth inhibition, 48 h; in the data active = GI50 below about 0.43 µM; inactive = the rest
One label from this list, please: class 1 (active), class 0 (inactive)

Examples from the recorded data:
Smiles Repr: COc1cc(-c2nccn2-c2ccc3ccccc3c2)cc(OC)c1OC
Group Label: class 0
//
Smiles Repr: Clc1ccc2c(N3CCN(c4ccnc(NC5CCCCC5)n4)CC3)ccnc2c1
Group Label: class 0

Request: I would be grateful if you could indicate the recorded call for NC(N)=NN=C(c1ccccc1)c1ccccc1 .
Response: class 0

Request: I would be grateful if you could indicate the recorded call for COc1ccc(-c2cn[nH]c2-c2cc(OC)c(OC)c(OC)c2)cc1OCc1ccccc1 .
Response: class 0

Request: I would be grateful if you could indicate the recorded call for O=C1/C(=C/c2ccccc2)CN(C(=O)CCN2CCC(=NO)CC2)C/C1=C\c1ccccc1 .
Response: class 0

Request: I would be grateful if you could indicate the recorded call for C=CCN1C(=O)c2cccc3c(N4CCOCC4)ccc(c23)C1=O .
Response: class 1

Request: I would be grateful if you could indicate the recorded call for ClCc1ccccc1Cn1cnc2c(Cl)nc(Cl)nc21 .
Response: class 0

Request: I would be grateful if you could indicate the recorded call for O=C(Nc1ccc2[nH]c3ccccc3c2c1)c1ccccc1Cl .
Response: class 0

Request: I would be grateful if you could indicate the recorded call for COc1cccc2[nH]c3c4c(c5c(c3c12)C(=O)N(CN1CCN(C)CC1)C5=O)CCC4 .
Response: class 0

---

System: NCI-H522 lung
Test Method Notes: NCI tumour cell line growth inhibition, 48 h
Square brackets hold non-standard residues; d marks the D form. Peptide text beside a SMILES is read from it. * marks the point of attachment. Boc = CC(C)(C)OC(=O)*; OBn = c1ccc(CO*)cc1
Measured log10 of TGI, listed per entry.
Scale type: logarithmic (base 10). Underlying TGI unit: µM.

Known log10 of TGI results, listed for orientation:
Compound: COc1cc2c(c(OC)c1OC)-c1ccc(SC)c(=O)cc1[C@@H](NCc1ccccc1[N+](=O)[O-])CC2
Result Type: log10 of TGI
Recorded Value: -1.53
//
Compound: O=c1cc(-c2ccc3ccccc3c2)[nH]c2ncc(Cl)cc12
Result Type: log10 of TGI
Recorded Value: 1.57
//
Compound: CCCC[C@H](NC(=O)[C@H]1CCCCN1C)C(=O)N(C)[C@H](C[C@@H](OC(C)=O)c1nc(C(=O)N[C@@H](Cc2ccccc2)C[C@H](C)C(=O)OCC)cs1)C(C)C
Result Type: log10 of TGI
Recorded Value: -0.11
//
Compound: CNC(=O)c1ccccc1Nc1cc(Nc2ccc(N3CCOCC3)cc2OC)ncc1C(F)(F)F
Result Type: log10 of TGI
Recorded Value: 1.58
//
Compound: C[C@@H](NC(=O)CNC(=O)OC(C)(C)C)C(=O)N[C@@H](Cc1ccccc1)C(=O)OCc1ccccc1 (Boc-Gly-[dA]-Phe-OBn)
Result Type: log10 of TGI
Recorded Value: 1.91

The compound listed as NS(=O)(=O)c1ccc(NC(=S)/N=C/c2c(O)c3ccccc3oc2=O)cc1 shows log10 of TGI equal to 1.95

The compound listed as O=C(c1ccc(Cl)c(Cl)c1)N1CCN(C(=O)c2ccc(Cl)c(Cl)c2)C1=S shows log10 of TGI equal to 1.40

The compound listed as C#Cc1cc(-c2nc3ccccc3s2)ccc1N shows log10 of TGI equal to 1.51

The compound listed as COc1cc(-c2nccn2-c2ccc3ccccc3c2)cc(OC)c1OC shows log10 of TGI equal to 1.31

The compound listed as O=C1/C(=C/c2ccccc2)CN(C(=O)CCN2CCC(=NO)CC2)C/C1=C\c1ccccc1 shows log10 of TGI equal to 0.53
